Tested on: HepG2
experimental_details: Antiproliferative activity against human HepG2 cells assessed as cell growth inhibition by MTT assay
Type: functional, cell-based

>  <molecule>
CC(C)c1ccc2c(c1)C(C)(C)CC(Sc1nc(N)n(S(=O)(=O)c3ccc(Cl)c([N+](=O)[O-])c3)n1)C2=O (stereo unspecified)

>  <IC50 / µM>
21.4

$$$$

###

System: Escherichia coli
experimental_details: Antibacterial activity against Escherichia coli MTCC 443 assessed as bacterial growth inhibition
Assay type: functional
Attribute: MIC
measured_parameter: MIC

>  <compound>
COc1ccc2c(c1)CC[C@@H]1C2=NN(C2=NC(=O)C(C)S2)[C@@H]1c1ccccc1 (some centres undefined)

>  <result>
6.25 µg/mL

$$$$
>  <compound>
CC1SC(N2N=C3c4ccccc4CC[C@H]3[C@H]2c2ccc(Cl)cc2)=NC1=O (some centres undefined)

>  <result>
12.5 µg/mL

$$$$
>  <compound>
CC1SC(N2N=C3c4ccccc4CC[C@H]3[C@H]2c2ccccc2)=NC1=O (some centres undefined)

>  <result>
6.25 µg/mL

$$$$
>  <compound>
COc1ccc2c(c1)CC[C@@H]1C2=NN(C2=NC(=O)C(C)S2)[C@@H]1c1ccc(Cl)cc1 (some centres undefined)

>  <result>
12.5 µg/mL

$$$$

###

Attribute: pKi
target_entity: Peroxisome proliferator-activated receptor gamma (Homo sapiens)
Sequence (P37231 whole entry): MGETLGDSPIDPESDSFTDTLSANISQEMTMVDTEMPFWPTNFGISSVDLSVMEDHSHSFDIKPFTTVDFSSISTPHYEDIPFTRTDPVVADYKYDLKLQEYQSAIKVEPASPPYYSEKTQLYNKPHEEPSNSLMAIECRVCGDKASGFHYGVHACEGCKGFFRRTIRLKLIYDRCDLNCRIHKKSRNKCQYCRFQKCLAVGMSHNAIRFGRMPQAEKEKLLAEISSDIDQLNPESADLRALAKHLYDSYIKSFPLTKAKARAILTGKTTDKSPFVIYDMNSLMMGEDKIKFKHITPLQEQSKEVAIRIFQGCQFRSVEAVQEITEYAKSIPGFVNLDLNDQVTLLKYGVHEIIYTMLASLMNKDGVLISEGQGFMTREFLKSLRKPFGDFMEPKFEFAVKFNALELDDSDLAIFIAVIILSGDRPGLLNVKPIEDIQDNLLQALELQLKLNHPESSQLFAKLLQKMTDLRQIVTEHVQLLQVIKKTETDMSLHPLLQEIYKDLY
experimental_details: Displacement of isotopically-labeled PPAR-gamma (unknown origin) assessed as inhibition constant by competitive inhibition assay
pKi: −log10 of the molar value.
measured_parameter: pKi

>  <compound>
C=C(C)C1Cc2cc3c(cc2C1)C(=O)C[C@@H](c1ccc(O)c(O)c1)C3 (some centres undefined)

>  <quantitative_result>
5.33

$$$$
>  <compound>
CC1(C)C=Cc2cc3c(cc2O1)C[C@H](c1ccc(O)c(O)c1)CC3=O

>  <quantitative_result>
5.24

$$$$
>  <compound>
CC1(C)C=Cc2cc3c(cc2O1)C[C@H](c1ccc(O)cc1)CC3=O

>  <quantitative_result>
5.31

$$$$
>  <compound>
COc1ccc([C@@H]2CC(=O)c3cc4c(cc3C2)OC(C)(C)C=C4)cc1O

>  <quantitative_result>
4.75

$$$$

###

target_entity: Amine oxidase [flavin-containing] A (Bos taurus, UniProt P21398)
Sequence (P21398 whole entry): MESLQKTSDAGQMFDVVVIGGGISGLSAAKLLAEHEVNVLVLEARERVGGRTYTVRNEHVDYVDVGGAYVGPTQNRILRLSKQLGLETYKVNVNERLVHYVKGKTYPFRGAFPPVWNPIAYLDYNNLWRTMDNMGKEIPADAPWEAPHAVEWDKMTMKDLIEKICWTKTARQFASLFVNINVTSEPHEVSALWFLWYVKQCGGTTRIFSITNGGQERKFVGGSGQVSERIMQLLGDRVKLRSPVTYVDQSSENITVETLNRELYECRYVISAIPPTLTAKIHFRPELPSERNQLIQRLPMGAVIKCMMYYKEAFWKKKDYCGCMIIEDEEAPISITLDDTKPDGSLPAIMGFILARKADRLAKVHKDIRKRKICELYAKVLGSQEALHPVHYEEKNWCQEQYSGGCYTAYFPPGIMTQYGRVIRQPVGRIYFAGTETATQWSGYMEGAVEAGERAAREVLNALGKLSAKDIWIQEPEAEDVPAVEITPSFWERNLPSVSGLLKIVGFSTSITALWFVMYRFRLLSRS
measured_parameter: IC50

>  <compound>
COc1cc(/C=C2\CCc3cc([N+](=O)[O-])ccc3C2=O)c(Br)c(OC)c1OC

>  <result>
990 nM

$$$$
>  <compound>
COc1ccc(/C=C2\CCc3cc([N+](=O)[O-])ccc3C2=O)c(Cl)c1OC

>  <result>
1240 nM

$$$$
>  <compound>
CCC1C/C(=C\c2cc(OC)c(OC)c(OC)c2Br)C(=O)c2ccccc21 (centres undefined)

>  <result>
920 nM

$$$$
>  <compound>
COc1cc2c(cc1OC)C(=O)C(CC1CCN(Cc3ccccc3)CC1)C2 (centres undefined)

>  <result>
828000 nM

$$$$

Each recorded value in this set is attributed to ChEMBL document CHEMBL5136978.
